Quick reference for Potency among some molecules
System: CP260
assay: qHTS profiling for inhibitors of Plasmodium falciparum proliferation (AID 504749); further: potency means the concentration at half of the fitted maximal effect; nearly all actives have a fitted effect of over 60% in size
conditionsUsed: P. falciparum in erythrocytes, SYBR Green DNA, 72 h; series mostly up to 28.7 µM
Inconclusive results are not listed. Calls of active or inactive are those of the source. The call rests on the fitted dose curve; in most records, active means well fitted inhibition curve with a large enough effect; inconclusive means small, poorly fitted or top-dose-only effect; inactive means flat fitted curve, though single readings scatter.

molecule="CCC1OC(=O)C[C@H](O)C(C)[C@@H](O[C@@H]2OC(C)C(O)C(N(C)C)C2O)C(CCN2CC(C)CC(C)C2)CC(C)C(=O)/C=C/C(C)=C\\[C@@H]1COC1OC(C)C(O)C(OC)C1OC (stereo partly drawn)" endpointlabel=Potency experimentalresult="11.2 µM (active)"

--- query ---
Indicate the recorded Potency value for this molecule: CC(=O)C1(O)Cc2c(O)c3c(c(O)c2C(OC2CC(N)C(O)C(C)O2)C1)C(=O)c1c(O)cccc1C3=O (stereo not drawn)
3.98 µM (active)
